target or test system: human kidney renin (Homo sapiens, UniProt P00797)
Construct: Human renin was prepared from human kidney
Sequence (P00797 67-406): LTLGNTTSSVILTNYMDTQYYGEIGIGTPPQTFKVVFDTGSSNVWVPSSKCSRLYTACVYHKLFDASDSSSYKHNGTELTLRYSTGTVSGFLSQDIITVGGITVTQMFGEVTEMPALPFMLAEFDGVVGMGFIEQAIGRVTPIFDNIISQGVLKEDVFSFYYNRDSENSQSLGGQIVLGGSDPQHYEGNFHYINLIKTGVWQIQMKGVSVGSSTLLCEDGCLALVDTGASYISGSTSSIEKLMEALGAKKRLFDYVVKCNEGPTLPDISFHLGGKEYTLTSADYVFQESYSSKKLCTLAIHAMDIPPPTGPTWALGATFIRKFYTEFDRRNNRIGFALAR
measurement notes: Radioimmunoassay Screen for Renin Inhibitors (in vitro angiotensin I generation, quantitated by radioimmunoassay)
settings: purified human plasma angiotensinogen, pH 6.0, one hour at 37° C., read-out: Renin Inhibiton IC50
quantity kind: pIC50
Please treat pIC50 as minus the base-10 logarithm of the molar concentration.

Study these solved cases before continuing.
{"columns": ["given smiles", "target or test system", "pIC50"],
 "data": [
  ["O=C(N[C@@H](Cc1cnc[nH]1)C(=O)N[C@@H](CC1CCCCC1)[C@@H](O)c1ccccn1)[C@@H](CC(=O)N1CCOCC1)Cc1cccc2ccccc12", "human kidney renin (Homo sapiens, UniProt P00797)", 6.59],
  ["CC(C)C[C@H](NC(=O)[C@@H](CC(=O)NCCCn1ccnc1)Cc1cccc2ccccc12)C(=O)N[C@@H](CC(C)C)[C@@H](O)c1nccs1", "human kidney renin (Homo sapiens, UniProt P00797)", 6.68]
]}

Exam item: Request the reported pIC50 associated with CC(C)C[C@H](NC(=O)[C@@H](CC(=O)NCCN1CCCC1)Cc1cccc2ccccc12)C(=O)N[C@@H](CC(C)C)[C@@H](O)c1nccs1
Marked response: 6.13
